target-system: human FKBP51FK1 (Homo sapiens)
assay-protocol: Fluorescence polarization assay, binding to FK1 domain of FKBP51
condition-context: at a concentration of 5 μM; library testing; read-out: FKBP 51 FK1 % inhibition
readout-name: inhibition at 5 µM (%)

- COc1ccc(CC[C@@H](OC(=O)[C@@H]2CCCCN2S(=O)(=O)c2csc3ccccc23)c2cccc(OCC(=O)O)c2)cc1OC [Compound 57]: 3.2

1. COc1ccc(CC[C@@H](OC(=O)[C@@H]2CCCCN2S(=O)(=O)c2ccccc2Cl)c2cccc(OCC(=O)O)c2)cc1OC [Compound 45]
2. COc1ccc(CC[C@@H](OC(=O)[C@@H]2CCCCN2S(=O)(=O)c2cc3ccccc3s2)c2cccc(OCC(=O)O)c2)cc1OC [Compound 5]
Exercise: Would you mind telling me which has the lower recorded inhibition at 5 µM between 1 and 2 ? Could you answer with the label of the item you picked?
Solution: 1
(1: 1.4%, 2: 12.4%)

###

target-system: UniProt:Q02790
Sequence (Q02790 50-138 limits assumed): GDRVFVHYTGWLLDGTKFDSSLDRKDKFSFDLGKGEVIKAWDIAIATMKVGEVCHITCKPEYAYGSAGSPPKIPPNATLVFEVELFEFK
assay-protocol: Fluorescence polarization assay, binding to FK1 domain of FKBP52
condition-context: read-out: FKBP52 FK1 % inhibition
Measured inhibition at 5 µM values are reported for all entries that follow.
A number alone suffices; assume %.

Exercise: What does the data say about its inhibition at 5 µM? Entry: "COc1ccc(CC[C@@H](OC(=O)[C@@H]2CCCCN2S(=O)(=O)c2cccnc2)c2cccc(OCC(=O)O)c2)cc1OC"
Solution: 9.5

Exercise: Value lookup for inhibition at 5 µM; key = "COc1ccc(CC[C@@H](OC(=O)[C@@H]2CCCCN2S(=O)(=O)c2cccc(Cl)c2)c2cccc(OCC(=O)O)c2)cc1OC"
Solution: 18

Exercise: Dear colleague, I am looking for the recorded inhibition at 5 µM of the following molecule: "COc1ccc(CC[C@@H](OC(=O)[C@@H]2CCCCN2S(=O)(=O)c2ccc(Cl)cc2)c2cccc(OCC(=O)O)c2)cc1OC"
Solution: 15.2

Exercise: Given the molecule "COc1ccc(CC[C@@H](OC(=O)[C@@H]2CCCCN2S(=O)(=O)c2ccc(C)cc2)c2cccc(OCC(=O)O)c2)cc1OC" , what is its reported inhibition at 5 µM?
Solution: 3.8

###

target-system: human FKBP51FK1 (Homo sapiens)
assay-protocol: Fluorescence polarization assay, binding to FK1 domain of FKBP51
condition-context: at a concentration of 5 μM; library testing; read-out: FKBP 51 FK1 % inhibition
readout-name: inhibition at 5 µM (%)

* COc1ccc(CC[C@@H](OC(=O)[C@@H]2CCCCN2S(=O)(=O)c2ccc(-c3ccccc3)s2)c2cccc(OCC(=O)O)c2)cc1OC | 3.2

I. COc1ccc(CC[C@@H](OC(=O)[C@@H]2CCCCN2S(=O)(=O)c2c(Cl)cccc2Cl)c2cccc(OCC(=O)O)c2)cc1OC
II. COc1ccc(CC[C@@H](OC(=O)[C@@H]2CCCCN2S(=O)(=O)c2cc3ccccc3o2)c2cccc(OCC(=O)O)c2)cc1OC
Exercise: Field: entry with larger inhibition at 5 µM (options I / II ). Select an item and report its label.
Solution: II

###

target-system: human FKBP52FK1 (Homo sapiens)
Sequence (Q02790 50-138 limits assumed): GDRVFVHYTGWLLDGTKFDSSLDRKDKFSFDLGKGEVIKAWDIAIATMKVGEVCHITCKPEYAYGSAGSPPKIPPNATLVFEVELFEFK
readout-name: IC50 (µM)
Report as a plain number; the unit µM is understood.

• COc1ccc(CC[C@@H](OC(=O)[C@@H]2CCCCN2S(=O)(=O)c2cccc(Cl)c2)c2cccc(OCC(=O)O)c2)cc1OC = 32.8

Exercise: So what's the measured IC50 for this one? "COc1ccc(CC[C@@H](OC(=O)[C@@H]2CCCCN2S(=O)(=O)c2cc(Cl)c(NC(C)=O)c(Cl)c2)c2cccc(OCC(=O)O)c2)cc1OC"
Solution: 15.6

###

target-system: UniProtKB Q13451
Sequence (Q13451 42-130 limits assumed): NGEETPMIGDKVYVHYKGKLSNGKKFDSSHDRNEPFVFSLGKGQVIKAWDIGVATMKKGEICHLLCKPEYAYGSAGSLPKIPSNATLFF
assay-protocol: Fluorescence polarization assay, binding to FK1 domain of FKBP51
condition-context: at a concentration of 5 μM; library testing; read-out: FKBP 51 FK1 % inhibition
readout-name: inhibition at 5 µM (%)

• COc1ccc(CC[C@@H](OC(=O)[C@@H]2CCCCN2S(=O)(=O)c2ccc3c(ccn3C)c2)c2cccc(OCC(=O)O)c2)cc1OC [Compound 50] = 10
• COc1ccc(CC[C@@H](OC(=O)[C@@H]2CCCCN2S(=O)(=O)c2cccs2)c2cccc(OCC(=O)O)c2)cc1OC [Compound 55] = 3.2
• COc1ccc(CC[C@@H](OC(=O)[C@@H]2CCCCN2S(=O)(=O)c2ccc(C(F)(F)F)cc2)c2cccc(OCC(=O)O)c2)cc1OC [Compound 40] = 8.9
• COc1ccc(CC[C@@H](OC(=O)[C@@H]2CCCCN2S(=O)(=O)c2ccc(C(F)(F)F)c(Cl)c2)c2cccc(OCC(=O)O)c2)cc1OC [Compound 48] = -0.2

I. COc1ccc(CC[C@@H](OC(=O)[C@@H]2CCCCN2S(=O)(=O)c2cccc3c2ccn3C)c2cccc(OCC(=O)O)c2)cc1OC [Compound 49]
II. COc1ccc(CC[C@@H](OC(=O)[C@@H]2CCCCN2S(=O)(=O)c2ccc(-c3ncccn3)cc2)c2cccc(OCC(=O)O)c2)cc1OC [Compound 1]
III. COc1ccc(CC[C@@H](OC(=O)[C@@H]2CCCCN2S(=O)(=O)c2c(C)nn(-c3ccccc3)c2C)c2cccc(OCC(=O)O)c2)cc1OC [Compound 62]
IV. COc1ccc(CC[C@@H](OC(=O)[C@@H]2CCCCN2S(=O)(=O)c2ccc3c(c2)N(C)CCO3)c2cccc(OCC(=O)O)c2)cc1OC [Compound 51]
Exercise: Order the items by recorded inhibition at 5 µM; the first position goes to the largest value. # output: labels, in the requested order
Solution: II, IV, III, I
(II: 16.3%, IV: 9.5%, III: 0.9%, I: -0.8%)

###

target-system: UniProt Q13451
Sequence (Q13451 42-130 limits assumed): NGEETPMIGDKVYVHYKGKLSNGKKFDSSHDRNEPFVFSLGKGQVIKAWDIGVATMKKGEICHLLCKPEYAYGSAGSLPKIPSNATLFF
assay-protocol: Fluorescence polarization assay, binding to FK1 domain of FKBP51
condition-context: at a concentration of 5 μM; library testing; read-out: FKBP 51 FK1 % inhibition
readout-name: inhibition at 5 µM (%)

- COc1ccc(CC[C@@H](OC(=O)[C@@H]2CCCCN2S(=O)(=O)c2ccc(F)cc2)c2cccc(OCC(=O)O)c2)cc1OC: 4.3

1. COc1ccc(CC[C@@H](OC(=O)[C@@H]2CCCCN2S(=O)(=O)c2c(C)nn(C)c2C)c2cccc(OCC(=O)O)c2)cc1OC
2. COc1ccc(CC[C@@H](OC(=O)[C@@H]2CCCCN2S(=O)(=O)c2ccc(-c3ccccc3)nc2)c2cccc(OCC(=O)O)c2)cc1OC
Exercise: Param pair: 1 , 2 . Output: the one whose inhibition at 5 µM is numerically greater. Give the label of your selection.
Solution: 1
(1: 5.5%, 2: 2.6%)

A. COc1ccc(CC[C@@H](OC(=O)[C@@H]2CCCCN2S(=O)(=O)c2cccc(-c3nnc(C)o3)c2)c2cccc(OCC(=O)O)c2)cc1OC
B. COc1ccc(CC[C@@H](OC(=O)[C@@H]2CCCCN2S(=O)(=O)c2ccc(Oc3ccccc3)cc2)c2cccc(OCC(=O)O)c2)cc1OC
Exercise: Select one. Lower inhibition at 5 µM: A or B I would appreciate it if you answered with the label of your choice.
Solution: A

###

Listed here: molecules with reported pIC50 for human FKBP51FK1 (Homo sapiens, UniProt Q13451).
pIC50: −log10 of the molar value.
readout-name: pIC50

Recorded results for 5 molecules are shown here.
- COc1ccc(CC[C@@H](OC(=O)[C@@H]2CCCCN2S(=O)(=O)c2cc3ccccc3s2)c2cccc(OCC(=O)O)c2)cc1OC [Compound 5]: 4.17
- COc1ccc(CC[C@@H](OC(=O)[C@@H]2CCCCN2S(=O)(=O)c2cc(Cl)c(O)c(Cl)c2)c2cccc(OCCN3CCOCC3)c2)cc1OC [Compound 33]: 6.34
- COc1ccc(CC[C@@H](OC(=O)[C@@H]2CCCCN2S(=O)(=O)c2cccc(Br)c2)c2cccc(OCC(=O)O)c2)cc1OC [Compound 12]: 5.51
- COc1ccc(CC[C@@H](OC(=O)[C@@H]2CCCCN2S(=O)(=O)c2cc(Cl)c(NC(C)=O)c(Cl)c2)c2cccc(OCCN3CCOCC3)c2)cc1OC [Compound 34]: 4.91
- COc1ccc(CC[C@@H](OC(=O)[C@@H]2CCCCN2S(=O)(=O)c2cc(Cl)c(OC)c(Cl)c2)c2cccc(OCC(=O)O)c2)cc1OC [Compound 22]: 4.79

P. COc1ccc(CC[C@@H](OC(=O)[C@@H]2CCCCN2S(=O)(=O)c2cc3c(c([N+](=O)[O-])c2)OCC3)c2cccc(OCC(=O)O)c2)cc1OC [Compound 25]
Q. COc1ccc(CC[C@@H](OC(=O)[C@@H]2CCCCN2S(=O)(=O)c2cc(Cl)c(NC(C)=O)c(Cl)c2)c2cccc(OCC(=O)O)c2)cc1OC [Compound 23]
Exercise: From the items above, decide which of P and Q has the lower pIC50 reading. Mark your selection by writing its label.
Solution: P
(P: 4.57, Q: 5.05)
